B1: TRIM29 (parent)
chain: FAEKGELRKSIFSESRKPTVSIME

# Variants of: B1
# assayOverview: protein stability index of a GFP-peptide fusion (GPS, HEK-293T) (PSI 1-6); higher = more stable;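 further: lentivirally expressed fusions sorted by FACS into six bins by GFP to DsRed ratio, PSI derived from sequencing read proportions per bin multiplied by bin number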
# conditions: c terminus: a fixed tail appended
Listed next: entries and their corresponding protein stability index.

| biosequence | protein stability index |
| --- | --- |
| FAEKGELRKSIFSESMKPTVSIME [R16M] | 2.02 |
| FAEKGELRKSIFSESREPTVSIME [K17E] | 1.67 |
| FAEKGELRKSIFSEPRKPTVSIME [S15P] | 2.71 |
| FAEKGELRKSIFSESRKPTVSICE [M23C] | 2.16 |
| FAEKGELRKSYFSESRKPTVSIME [I11Y] | 1.7 |
| FAQKGELRKSIFSESRKPTVSIME [E3Q] | 2.05 |
| FAEKGELRKSIFSESRKPTVSIMW [E24W] | 2.17 |
